Here the recorded inhibition is given for each entry.
Biological target: Proteasome component C5 (Homo sapiens)
Sequence (whole entry): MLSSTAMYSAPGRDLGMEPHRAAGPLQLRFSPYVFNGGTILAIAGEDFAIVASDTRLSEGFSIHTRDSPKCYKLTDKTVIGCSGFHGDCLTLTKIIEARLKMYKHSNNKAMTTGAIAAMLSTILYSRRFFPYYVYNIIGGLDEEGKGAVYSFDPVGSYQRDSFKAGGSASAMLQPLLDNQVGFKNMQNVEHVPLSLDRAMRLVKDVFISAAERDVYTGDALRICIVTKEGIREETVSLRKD
Assay: Inhibition of human 20S constitutive proteasome beta-1 at 50 uM using Z-LLE-betaNA as substrate incubated for 15 mins measured for 45 mins by fluorescence assay relative to control

Consider the molecule shown here: "C[C@H](NC(=O)[C@H](Cc1ccc(OCc2ccccc2)cc1)NC(=O)OC(C)(C)C)C(=O)N[C@@H](C[C@]1(O)C(=O)Nc2ccccc21)C(=O)NCC1CCCCC1" What is its recorded inhibition?
> 85%

Could you now look at the following molecule, please?
Param item = "C[C@H](NC(=O)[C@H](Cc1ccc(OCc2ccccc2)cc1)NC(=O)OC(C)(C)C)C(=O)N[C@@H](C[C@]1(O)C(=O)Nc2ccccc21)C(=O)NCCC(=O)O" ; retrieve measured inhibition.
19%
